Biological target: CDK7/CycH/MAT1 (Homo sapiens, UniProt P50613)
Sequence (P50613 whole entry): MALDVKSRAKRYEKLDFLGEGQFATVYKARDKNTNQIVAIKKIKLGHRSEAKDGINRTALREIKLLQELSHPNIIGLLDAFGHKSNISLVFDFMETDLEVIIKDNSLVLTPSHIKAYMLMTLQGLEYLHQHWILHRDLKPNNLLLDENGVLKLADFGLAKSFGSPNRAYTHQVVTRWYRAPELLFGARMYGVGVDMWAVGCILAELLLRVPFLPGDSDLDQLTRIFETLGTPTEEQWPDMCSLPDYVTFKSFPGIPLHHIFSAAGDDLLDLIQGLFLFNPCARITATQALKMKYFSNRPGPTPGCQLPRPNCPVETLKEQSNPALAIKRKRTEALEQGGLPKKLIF
Sequence (P51946 whole entry partner): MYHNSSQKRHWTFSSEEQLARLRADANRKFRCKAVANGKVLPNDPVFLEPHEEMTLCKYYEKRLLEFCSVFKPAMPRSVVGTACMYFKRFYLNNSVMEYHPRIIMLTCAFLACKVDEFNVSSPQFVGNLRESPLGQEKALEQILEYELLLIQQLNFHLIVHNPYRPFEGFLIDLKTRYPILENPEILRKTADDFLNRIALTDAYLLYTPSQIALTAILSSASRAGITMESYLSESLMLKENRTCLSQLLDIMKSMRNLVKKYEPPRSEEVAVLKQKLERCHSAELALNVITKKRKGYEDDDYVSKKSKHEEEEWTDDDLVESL
Sequence (P51948 whole entry partner): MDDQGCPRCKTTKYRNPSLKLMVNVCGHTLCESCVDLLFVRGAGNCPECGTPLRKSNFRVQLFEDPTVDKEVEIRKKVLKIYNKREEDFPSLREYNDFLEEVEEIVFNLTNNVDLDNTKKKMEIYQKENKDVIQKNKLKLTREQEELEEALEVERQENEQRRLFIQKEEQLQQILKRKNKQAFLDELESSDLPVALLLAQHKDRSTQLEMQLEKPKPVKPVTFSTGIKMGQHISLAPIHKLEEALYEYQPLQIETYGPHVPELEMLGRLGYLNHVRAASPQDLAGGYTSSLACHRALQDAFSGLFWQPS
Assay: In vitro kinase assay (PKLight luciferase ATP readout), CDK7
Conditions: ATP at Km; read-out: In vitro Kinase Inhibition CDK7 IC50
Structures can show the parent of a compound that is named as a salt.
ASSAY READOUT: IC50 (nM)
The answer is to be given in nM; state only the numeric part.

# annotated cases, reported IC50 shown
[[record]]
compound = "CC(C)c1cnn2c(NCc3ccccc3)cc(NC[C@H]3CCCC[C@@H]3O)nc12 [XX-02, reference compound]"
reported = 687

[[record]]
compound = "CC(C)c1cnn2c(Nc3ccc(S(=O)(=O)N(C)C)cc3)cc(NC[C@H]3CCNC[C@@H]3O)nc12"
reported = 111

[[record]]
compound = "CC(C)c1cnn2c(NCC3CCCCC3)cc(NC[C@]3(O)CCNC[C@H]3O)nc12 (racemic)"
reported = 975

[[record]]
compound = "CC(C)c1cnn2c(NCc3ccccc3)cc(NC[C@]3(O)CCNC[C@H]3O)nc12 (racemic) [PPDA-002, hydrochloride]"
reported = 18

[[record]]
compound = "CC(C)c1cnn2c(NC(=O)C3CCNCC3)cc(NC[C@H]3CCNC[C@@H]3O)nc12 [PPDA-009, hydrochloride]"
reported = 462


Kindly review the next compound as well.
The recorded IC50 for `CC(C)c1cnn2c(NCc3ccccc3)cc(NC[C@H]3NC[C@H](O)[C@@H]3O)nc12` is 305
